Where do these numbers come from? They come from ChEMBL document CHEMBL4251615.

Measured growth at 10 µM by item
Tested on: HCT-15
TEST_DETAILS: Growth inhibition of human HCT15 cells assessed as cell growth at 10 uM incubated for 48 hrs by sulforhodamine B assay relative to control
Type: functional
ASSAY_CONTEXT: HCT-15, 48 h, read-out: Activity
Expressed in %, but write only the number.

As a guide, the following entries are already answered.
# SAMPLE_SMILES, ASSAYED_SYSTEM, growth at 10 µM (%)
measured = [
    ("Cc1cccc(Nc2ncnc3oc(C)c(C(=O)NCCN4CCOCC4)c23)c1", "HCT-15", 94.9),
    ("CCOC(=O)c1c(C)oc2ncnc(Nc3cccc(F)c3)c12", "HCT-15", 95.3),
    ("Cc1oc2ncnc(Nc3cccc(Cl)c3)c2c1CO", "HCT-15", 67.3),
    ("Cc1oc2ncnc(Nc3ccccc3)c2c1C(=O)NCCO", "HCT-15", 98),
    ("CCCNC(=O)c1c(C)oc2ncnc(Nc3cccc(Cl)c3)c12", "HCT-15", 101),
    ("CCOC(=O)c1c(C)oc2ncnc(Nc3ccc(OCc4ccc(Cl)c(Cl)c4)cc3)c12", "HCT-15", 104),
    ("Cc1oc2ncnc(Nc3cccc(F)c3)c2c1C(=O)O", "HCT-15", 101),
    ("CCOC(=O)c1c(C)oc2ncnc(Nc3ccc(OCc4cccc(C)c4)cc3)c12", "HCT-15", 99.5),
]

Moving on to the next compound.
// assay HCT-15, entry CCOC(=O)c1c(C)oc2ncnc(Nc3ccc(OCc4cccc(F)c4)cc3)c12 , growth at 10 µM value = 98.5

###

Tested on: KM12
TEST_DETAILS: Growth inhibition of human KM12 cells assessed as cell growth at 10 uM incubated for 48 hrs by sulforhodamine B assay relative to control
Type: functional
ASSAY_CONTEXT: KM12, 48 h, read-out: Activity
METRIC_NAME: growth at 10 µM (%)
Expressed in %, but write only the number.

What the record says about Cc1cccc(Nc2ncnc3oc(C)c(C(=O)NCCO)c23)c1 : growth at 10 µM is 93.9

What the record says about Cc1oc2ncnc(Nc3ccccc3)c2c1C(=O)NCCO : growth at 10 µM is 95.2

What the record says about CCOC(=O)c1c(C)oc2ncnc(Nc3ccc(F)cc3)c12 : growth at 10 µM is 97.6

What the record says about Cc1oc2ncnc(Nc3cccc(Cl)c3)c2c1CO : growth at 10 µM is 91.4

What the record says about CCOC(=O)c1c(C)oc2ncnc(Nc3ccc(OCc4cccc(F)c4)cc3)c12 : growth at 10 µM is 92.9

What the record says about CCOC(=O)c1c(C)oc2ncnc(Nc3ccc(OCc4ccc(Cl)cc4)cc3)c12 : growth at 10 µM is 101

What the record says about CCCNC(=O)c1c(C)oc2ncnc(Nc3cccc(Cl)c3)c12 : growth at 10 µM is 94.6

What the record says about CCOC(=O)c1c(C)oc2ncnc(Nc3cccc(F)c3)c12 : growth at 10 µM is 100

###

Test system: HOP-62
TEST_DETAILS: Growth inhibition of human HOP62 cells assessed as cell growth at 10 uM incubated for 48 hrs by sulforhodamine B assay relative to control
Format: functional
ASSAY_CONTEXT: HOP-62, 48 h, read-out: Activity
Measured growth at 10 µM by item
Expressed in %, but write only the number.

# SAMPLE_SMILES, growth at 10 µM [%]
data = [
    ("Cc1oc2ncnc(Nc3cccc(Cl)c3)c2c1CO", 89),
    ("CCOC(=O)c1c(C)oc2ncnc(Nc3ccc(OCc4cccc(F)c4)cc3)c12", 87.8),
    ("Cc1oc2ncnc(Nc3ccccc3)c2c1C(=O)NCCO", 99),
]

What the record says about Cc1oc2ncnc(Nc3ccc(OCc4cccc(F)c4)c(Cl)c3)c2c1C(=O)NCCO : growth at 10 µM is 51.1

###

System: HOP-62
TEST_DETAILS: Growth inhibition of human HOP62 cells assessed as cell growth at 10 uM incubated for 48 hrs by sulforhodamine B assay relative to control
Type: functional
ASSAY_CONTEXT: HOP-62, 48 h, read-out: Activity
Measured growth at 10 µM by item
Expressed in %, but write only the number.

# SAMPLE_SMILES, UNITS_TEXT, growth at 10 µM
rows = [
    ("CCOC(=O)c1c(C)oc2ncnc(Nc3ccc(OCc4ccc(Cl)c(Cl)c4)cc3)c12", "%", 101),
    ("CCOC(=O)c1c(C)oc2ncnc(Nc3ccc(F)c(Cl)c3)c12", "%", 101),
]

What the record says about Cc1cccc(Nc2ncnc3oc(C)c(C(=O)NCCN4CCOCC4)c23)c1 : growth at 10 µM is 93.1

What the record says about CCOC(=O)c1c(C)oc2ncnc(Nc3ccc(OCc4cccc(C)c4)cc3)c12 : growth at 10 µM is 101

###

Test system: OVCAR-4
TEST_DETAILS: Growth inhibition of human OVCAR4 cells assessed as cell growth at 10 uM incubated for 48 hrs by sulforhodamine B assay relative to control
Assay type: functional
ASSAY_CONTEXT: OVCAR-4, 48 h, read-out: Activity
METRIC_NAME: growth at 10 µM (%)
Expressed in %, but write only the number.

What the record says about Cc1oc2ncnc(Nc3ccc(OCc4cccc(F)c4)c(Cl)c3)c2c1C(=O)NCCO : growth at 10 µM is 66.9

What the record says about Cc1cccc(Nc2ncnc3oc(C)c(C(=O)NCCO)c23)c1 : growth at 10 µM is 95

What the record says about CCOC(=O)c1c(C)oc2ncnc(Nc3ccc(OCc4cccc(F)c4)cc3)c12 : growth at 10 µM is 102

###

System: RPMI-8226
TEST_DETAILS: Growth inhibition of human RPMI8226 cells assessed as cell growth at 10 uM incubated for 48 hrs by sulforhodamine B assay relative to control
Assay type: functional
ASSAY_CONTEXT: RPMI-8226, 48 h, read-out: Activity
METRIC_NAME: growth at 10 µM (%)
Expressed in %, but write only the number.

As a guide, the following entries are already answered.
# SAMPLE_SMILES, MEASURED
measured = [
    ("Cc1oc2ncnc(Nc3cccc(Cl)c3)c2c1CO", 70.4),
    ("Cc1cccc(Nc2ncnc3oc(C)c(C(=O)NCCN4CCOCC4)c23)c1", 89.5),
    ("CCOC(=O)c1c(C)oc2ncnc(Nc3ccc(OCc4cccc(C)c4)cc3)c12", 117),
    ("Cc1oc2ncnc(Nc3ccccc3)c2c1C(=O)NCCO", 94.8),
    ("Cc1cccc(Nc2ncnc3oc(C)c(C(=O)NCCO)c23)c1", 95.7),
    ("Cc1oc2ncnc(Nc3cccc(F)c3)c2c1C(=O)NCCO", 106),
    ("CCOC(=O)c1c(C)oc2ncnc(Nc3ccc(OCc4ccc(Cl)c(Cl)c4)cc3)c12", 117),
    ("CCCNC(=O)c1c(C)oc2ncnc(Nc3cccc(Cl)c3)c12", 95.4),
    ("Cc1oc2ncnc(Nc3ccc(OCc4cccc(F)c4)c(Cl)c3)c2c1C(=O)NCCO", 70.2),
    ("Cc1oc2ncnc(Nc3cccc(F)c3)c2c1C(=O)O", 107),
]

What the record says about CCOC(=O)c1c(C)oc2ncnc(Nc3ccc(F)c(Cl)c3)c12 : growth at 10 µM is 101

What the record says about CCOC(=O)c1c(C)oc2ncnc(Nc3ccc(OCc4cccc(F)c4)cc3)c12 : growth at 10 µM is 104

What the record says about CCOC(=O)c1c(C)oc2ncnc(Nc3ccc(OCc4ccc(Cl)cc4)cc3)c12 : growth at 10 µM is 111

What the record says about CCOC(=O)c1c(C)oc2ncnc(Nc3ccc(F)cc3)c12 : growth at 10 µM is 103

What the record says about CCOC(=O)c1c(C)oc2ncnc(Nc3cccc(F)c3)c12 : growth at 10 µM is 107

###

Measured growth at 10 µM by item
Test system: MDA-MB-231
TEST_DETAILS: Growth inhibition of human MDA-MB-231 cells assessed as cell growth at 10 uM incubated for 48 hrs by sulforhodamine B assay relative to control
Type: functional
ASSAY_CONTEXT: MDA-MB-231, 48 h, read-out: Activity
Expressed in %, but write only the number.

As a guide, the following entries are already answered.
# SAMPLE_SMILES, UNITS_TEXT, growth at 10 µM
measured = [
    ("CCOC(=O)c1c(C)oc2ncnc(Nc3ccc(OCc4cccc(F)c4)cc3)c12", "%", 101),
    ("Cc1oc2ncnc(Nc3cccc(F)c3)c2c1C(=O)O", "%", 85),
]

What the record says about CCOC(=O)c1c(C)oc2ncnc(Nc3ccc(OCc4ccc(Cl)cc4)cc3)c12 : growth at 10 µM is 101

What the record says about CCOC(=O)c1c(C)oc2ncnc(Nc3cccc(F)c3)c12 : growth at 10 µM is 91.7
